# Species: Rattus norvegicus
# Assay info: Open TG-GATES - Regimen: Daily Repeat
# Format: toxicity, organism-based, Sprague-Dawley
# Set-up: regimen Daily Repeat, gender Male, age 6 weeks
# Measurement conditions: in vivo, po, 100 mg/kg, […], tissue Plasma, route gavage, dose level Low, time 7 day
Exercise: state measured AST for each of the compounds provided.
Numbers only, in IU/L.

Compound: CCCCNC(=O)NS(=O)(=O)c1ccc(C)cc1 [TOLBUTAMIDE]
AST (IU/L): 68
--
Compound: CC(S)C(=O)NCC(=O)O (centres undefined)
AST (IU/L): 66.8
--
Compound: O=C(O)c1ccccc1Nc1ccccc1
AST (IU/L): 63.4

In the following, a different compound is considered.
Recorded AST for CC(=O)[C@@]1(O)CC[C@H]2[C@@H]3C=C(Cl)C4=CC(=O)CC[C@]4(C)[C@H]3CC[C@@]21C , please?
74.6

* * *

# Species: Rattus norvegicus
# Assay info: Open TG-GATES - Regimen: Daily Repeat
# Type: toxicity, organism-based, Sprague-Dawley
# Set-up: regimen Daily Repeat, gender Male, age 6 weeks
# Measurement conditions: in vivo, po, 100 mg/kg, […], tissue Plasma, route gavage, dose level Low, time 14 day
Exercise: state measured ALT for each of the compounds provided.
One number for each entry, in IU/L.

In the examples that follow, each entry is paired with its recorded ALT.
Compound: CCCCNC(=O)NS(=O)(=O)c1ccc(C)cc1 [TOLBUTAMIDE]
ALT, IU/L: 37.2

Compound: CC(S)C(=O)NCC(=O)O (centres undefined)
ALT, IU/L: 37.4

Compound: O=C(O)c1ccccc1Nc1ccccc1
ALT, IU/L: 35.6

In the following, a different compound is considered.
Recorded ALT for CC(=O)[C@@]1(O)CC[C@H]2[C@@H]3C=C(Cl)C4=CC(=O)CC[C@]4(C)[C@H]3CC[C@@]21C , please?
44.8

* * *

# Species on record: Rattus norvegicus
# Assay info: Open TG-GATES - Regimen: Single
# Type: toxicity, organism-based, Sprague-Dawley
# Set-up: regimen Single, gender Male, age 6 weeks
# Measurement conditions: in vivo, po, 0 mg/kg, 3 h, tissue Blood, route gavage, dose level Control
Endpoint name: Fbg (mg/dL)
Give bare numbers, in mg/dL.

Compound: CN(CCOc1ccc(CC2SC(=O)NC2=O)cc1)c1ccccn1.O=C(O)/C=C\C(=O)O (centres undefined) [ROSIGLITAZONE MALEATE]
Endpoint name: Fbg
Reported result: 216.8

Compound: CCO
Endpoint name: Fbg
Reported result: 200.4

Compound: NS(=O)(=O)c1cc(C(=O)O)c(NCc2ccco2)cc1Cl [FUROSEMIDE]
Endpoint name: Fbg
Reported result: 270

Compound: CC(=O)[C@@]1(O)CC[C@H]2[C@@H]3C=C(Cl)C4=CC(=O)CC[C@]4(C)[C@H]3CC[C@@]21C
Endpoint name: Fbg
Reported result: 294.4

Compound: COc1ccc([C@@H]2Sc3ccccc3N(CCN(C)C)C(=O)[C@@H]2OC(C)=O)cc1
Endpoint name: Fbg
Reported result: 269

Quick batch: Fbg for everything below.
1. O=c1ccc2ccccc2o1
2. O=C(O)c1ccccc1Nc1ccccc1
3. CC(S)C(=O)NCC(=O)O (centres undefined)

[205.4, 255.6, 292.4]

Quick batch: Fbg for everything below.
1. CCCCNC(=O)NS(=O)(=O)c1ccc(C)cc1 [TOLBUTAMIDE]
2. CN(C)CCCN1c2ccccc2Sc2ccc(Cl)cc21
3. C=C[C@H]1C[N@@]2CC[C@H]1C[C@@H]2[C@@H](O)c1ccnc2ccc(OC)cc12
4. Nc1ccc(Cc2ccc(N)cc2)cc1

1: 286.6; 2: 223.6; 3: 313.6; 4: 263.2

Quick batch: Fbg for everything below.
1. CN(C/C=C/C#CC(C)(C)C)Cc1cccc2ccccc12
2. CCN(CC)C(=S)SSC(=S)N(CC)CC

1. 226
2. 285.8

* * *

# Species on record: Rattus norvegicus
# Assay info: Open TG-GATES - Regimen: Daily Repeat
# Assay type: toxicity, organism-based, Sprague-Dawley
# Set-up: regimen Daily Repeat, gender Male, age 6 weeks
# Measurement conditions: in vivo, po, 100 mg/kg, […], tissue Blood, route gavage, dose level Low, time 28 day
Endpoint name: Lym (%)
Answers are plain numbers, in %.

Quick batch: Lym for everything below.
1. O=C(O)c1ccccc1Nc1ccccc1
2. CCCCNC(=O)NS(=O)(=O)c1ccc(C)cc1 [TOLBUTAMIDE]
3. CC(S)C(=O)NCC(=O)O (centres undefined)
4. CC(=O)[C@@]1(O)CC[C@H]2[C@@H]3C=C(Cl)C4=CC(=O)CC[C@]4(C)[C@H]3CC[C@@]21C

[78.2, 80.4, 80.6, 84.8]

* * *

Exercise: state measured GLC for each of the compounds provided.
# Species on record: Rattus norvegicus
# Assay info: Open TG-GATES - Regimen: Daily Repeat
# Type: toxicity, organism-based, Sprague-Dawley
# Design: regimen Daily Repeat, gender Male, age 6 weeks
# Measurement conditions: in vivo, po, 1000 mg/kg, 72 h, tissue Plasma, route gavage, dose level High, time 3 day
Answers are plain numbers, in mg/dL.

In the examples that follow, each entry is paired with its recorded GLC.
Compound: CC(S)C(=O)NCC(=O)O (centres undefined)
Reported result: 186.2

Compound: O=C(O)c1ccccc1Nc1ccccc1
Reported result: 165.7

Compound: CCCCNC(=O)NS(=O)(=O)c1ccc(C)cc1 [TOLBUTAMIDE]
Reported result: 172

In the following, a different compound is considered.
Recorded GLC for CC(=O)[C@@]1(O)CC[C@H]2[C@@H]3C=C(Cl)C4=CC(=O)CC[C@]4(C)[C@H]3CC[C@@]21C , please?
191.8

* * *

# Species on record: Rattus norvegicus
# Assay info: Open TG-GATES - Regimen: Daily Repeat
# Format: toxicity, organism-based, Sprague-Dawley
# Parameters: regimen Daily Repeat, gender Male, age 6 weeks
# Measurement conditions: in vivo, po, 1000 mg/kg, […], tissue Plasma, route gavage, dose level High, time 28 day
Endpoint name: ALT (IU/L)
One number for each entry, in IU/L.

In the examples that follow, each entry is paired with its recorded ALT.
Compound: O=C(O)c1ccccc1Nc1ccccc1
Unit spec: IU/L
ALT: 36.5
--
Compound: CC(S)C(=O)NCC(=O)O (centres undefined)
Unit spec: IU/L
ALT: 49.2
--
Compound: CCCCNC(=O)NS(=O)(=O)c1ccc(C)cc1 [TOLBUTAMIDE]
Unit spec: IU/L
ALT: 36.5

In the following, a different compound is considered.
Recorded ALT for CC(=O)[C@@]1(O)CC[C@H]2[C@@H]3C=C(Cl)C4=CC(=O)CC[C@]4(C)[C@H]3CC[C@@]21C , please?
58.4

* * *

Exercise: state measured IP for each of the compounds provided.
# Species on record: Rattus norvegicus
# Assay info: Open TG-GATES - Regimen: Daily Repeat
# Type: toxicity, organism-based, Sprague-Dawley
# Design: regimen Daily Repeat, gender Male, age 6 weeks
# Measurement conditions: in vivo, po, 100 mg/kg, […], tissue Plasma, route gavage, dose level Low, time 14 day
Answers are plain numbers, in mg/dL.

In the examples that follow, each entry is paired with its recorded IP.
Compound: CCCCNC(=O)NS(=O)(=O)c1ccc(C)cc1 [TOLBUTAMIDE]
Unit spec: mg/dL
IP: 7.1
//
Compound: CC(S)C(=O)NCC(=O)O (centres undefined) [TIOPRONIN]
Unit spec: mg/dL
IP: 6.4
//
Compound: O=C(O)c1ccccc1Nc1ccccc1 [FENAMIC ACID]
Unit spec: mg/dL
IP: 7

In the following, a different compound is considered.
Recorded IP for CC(=O)[C@@]1(O)CC[C@H]2[C@@H]3C=C(Cl)C4=CC(=O)CC[C@]4(C)[C@H]3CC[C@@]21C [CHLORMADINONE] , please?
6.5

* * *

# Organism: Rattus norvegicus
# Assay info: Open TG-GATES - Regimen: Daily Repeat
# Assay type: toxicity, organism-based, Sprague-Dawley
# Set-up: regimen Daily Repeat, gender Male, age 6 weeks
# Measurement conditions: in vivo, po, 100 mg/kg, 72 h, tissue Blood, route gavage, dose level Low, time 3 day
Exercise: state measured WBC for each of the compounds provided.
Answers are plain numbers, in x10_2/uL.

In the examples that follow, each entry is paired with its recorded WBC.
Compound: CCCCNC(=O)NS(=O)(=O)c1ccc(C)cc1 [TOLBUTAMIDE]
Endpoint name: WBC
Reported result: 98.1
//
Compound: O=C(O)c1ccccc1Nc1ccccc1 [FENAMIC ACID]
Endpoint name: WBC
Reported result: 82.6
//
Compound: CC(S)C(=O)NCC(=O)O (centres undefined) [TIOPRONIN]
Endpoint name: WBC
Reported result: 105.6

Recorded WBC for CC(=O)[C@@]1(O)CC[C@H]2[C@@H]3C=C(Cl)C4=CC(=O)CC[C@]4(C)[C@H]3CC[C@@]21C [CHLORMADINONE] , please?
113
